Would you kindly list IC50 for each of these compounds?
# Tested on: KRAS G12V dependent lung adenocarcinoma cell line, NCI-H441
# Protocol text: Cellular pERK (Thr202/Tyr204) FRET/HTRF assay
# Format: cell-based
# Condition label: Homo sapiens, NCI-H441, cellular pERK (Thr202/Tyr204) HTRF, NCI-H441 cells
# Description: “Ras” refers to a protein in the Ras superfamily of small GTPases, such as in the Ras subfamily. […] The Ras proteins play a critical role in the regulation of cell behaviors, including proliferation, differentiation, and survival. […] pERK was measured using an advanced pERK assay designed for the robust and highly sensitive quantification of ERK phosphorylation on Thr202/Tyr204. […] The simple mix-and-read protocol eliminates all wash steps for faster analysis and high-quality output. […]

Consider the reported IC50 for these compounds:
- Compound: "[2H]C([2H])([2H])Oc1c(F)c(F)c(F)c2cc(N)cc(-c3ncc4c(N5CCOC[C@H]6[C@H](F)[C@H]65)nc(OC[C@@]56CC(=C)CN5CCC65CC5)nc4c3F)c12 [Example 121]"
  IC50: "< 50 nM"
- Compound: "Cc1c(F)c(N)cc(-c2ncc3c(N4CCCC[C@H]5[C@H](F)[C@H]54)nc(OC[C@@]45CCCN4CC(=C(F)F)C5)nc3c2F)c1C(F)(F)F [Example 394]"
  IC50: "500 to 10000 nM"
- Compound: "[2H]C([2H])(Oc1nc(N2CC=CC[C@@H]3[C@@H](F)[C@@H]32)c2cnc(-c3cc(N)cc4cc(F)c(F)c(C#C)c34)c(F)c2n1)[C@@]12CCCN1C[C@H](F)C2 [Example 138]"
  IC50: "500 to 10000 nM"
- Compound: "[2H]C([2H])(Oc1nc(N2CCOC[C@H]3[C@H](F)[C@H]32)c2cnc(-c3cc(N)cc4ccc(F)c(C#C)c34)c(F)c2n1)[C@@]12CCCN1C[C@@H](CF)C2 (single isomer, unassigned) [Example 265]"
  IC50: "< 50 nM"
- Compound: "C=C1CN2CCC[C@@]2(COc2nc(N3CCOC[C@H]4[C@H](F)[C@H]43)c3cc(C(F)(F)F)c(-c4ccc(F)c5sc(N)c(C#N)c45)c(F)c3n2)C1 (atropisomer, axis not shown) [Example 432]"
  IC50: "< 50 nM"

For every item in the list below, what is its measured IC50?
1. C#Cc1c(F)ccc2cc(N)cc(-c3ncc4c(N5CCOC[C@H]6[C@H](F)[C@H]65)nc(OC[C@@]56CCC(C)(C)N5C[C@H](F)C6)nc4c3F)c12 [Example 239]
2. C#Cc1c(Cl)ccc2cc(N)cc(-c3ncc4c(N5CCOC[C@@H]6[C@@H](Cl)[C@@H]65)nc(OC[C@@H]5CCCN5C)nc4c3F)c12 [Example 326]
3. [2H]C([2H])(Oc1nc(N2CCOC[C@@H]3[C@H]2[C@@]3([2H])F)c2cnc(-c3cc(N)cc4ccc(F)c(C#C)c34)c(F)c2n1)[C@@]12CCCN1C[C@H](F)C2 [Example 185]
4. [2H]C([2H])(Oc1nc(N2CCOC[C@H]3[C@H](Cl)[C@H]32)c2cnc(-c3cc(N)cc4ccc(C)c(C#C)c34)c(F)c2n1)[C@@]12CCCN1[C@H](C)[C@H](F)C2 [Example 366]

[out]
1. < 50 nM
2. 50 to 500 nM
3. < 50 nM
4. < 50 nM

[in] Sample C#Cc1c(F)ccc2cc(N)cc(-c3ncc4c(N5CCOC[C@H]6[C@H](F)[C@H]65)nc(OC[C@@]56CCCN5C[C@H](F)C6)nc4c3F)c12 [Example 212] — what was its IC50?
[out] < 50 nM

---

# Protocol text: Pharmacokinetic evaluation, single dosing (oral and intravenous) in rats
# Assay type: in vivo, male Sprague-Dawley rats
# Parameters: unit not given here
# Condition label: rat, oral, dose 10 mg/kg, plasma
Measurement name: PO (dose 10 mg/kg) (AUC/D) (h*mg/mL)
Give bare numbers.

Consider the reported PO (dose 10 mg/kg) (AUC/D) (h*mg/mL) for these compounds:
- Record smiles: "[2H]C([2H])(Oc1nc(N2CCOC[C@H]3[C@H](F)[C@H]32)c2cnc(-c3cc(N)cc4ccc(Cl)c(C#C)c34)c(F)c2n1)[C@@]12CCCN1C[C@H](F)C2"
  PO (dose 10 mg/kg) (AUC/D) (h*mg/mL): 97
- Record smiles: "[2H]C([2H])([2H])Oc1c(F)ccc2cc(N)cc(-c3ncc4c(N5CCCO[C@H]6[C@H](F)[C@H]65)nc(OC([2H])([2H])[C@@]56CCCN5C[C@H](F)C6)nc4c3F)c12"
  PO (dose 10 mg/kg) (AUC/D) (h*mg/mL): 142
- Record smiles: "[2H]C([2H])(Oc1nc(N2CCCC[C@H]3[C@H](F)[C@H]32)c2cnc(-c3cc(O)cc4ccc(F)c(C#C)c34)c(F)c2n1)[C@@]12CCCN1C[C@H](F)C2"
  PO (dose 10 mg/kg) (AUC/D) (h*mg/mL): 0.0
- Record smiles: "[2H]C([2H])(Oc1nc(N2CCOC[C@H]3[C@H](F)[C@H]32)c2cnc(-c3cc(O)cc4ccc(Cl)c(C#C)c34)c(F)c2n1)[C@@]12CCCN1C[C@H](F)C2"
  PO (dose 10 mg/kg) (AUC/D) (h*mg/mL): 0.4

Kindly review the next compound as well.
[in] Sample `[2H]C([2H])(Oc1nc(N2CCCO[C@H]3[C@H](F)[C@H]32)c2cnc(-c3cc(N)cc4cc(F)c(F)c(C#C)c34)c(F)c2n1)[C@@]12CCCN1C[C@H](F)C2` — what was its PO (dose 10 mg/kg) (AUC/D) (h*mg/mL)?
[out] 35

---

# Tested target: KRAS (G12V)/CRAF (Homo sapiens (Human), UniProt P01116, G12V)
# Sequence (P01116-2 other isoform, or with tags, fused parts or gaps G12V): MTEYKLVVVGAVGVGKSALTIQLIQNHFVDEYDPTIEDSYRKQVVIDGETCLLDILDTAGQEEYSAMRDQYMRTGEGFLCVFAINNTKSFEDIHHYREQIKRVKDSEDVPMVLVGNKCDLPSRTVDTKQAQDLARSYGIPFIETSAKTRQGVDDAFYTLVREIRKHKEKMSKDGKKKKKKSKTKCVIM
# Protocol text: TR-FRET biochemical KRAS:CRAF protein:protein interaction assay, KRAS (G12V)
# Condition label: GMPPNP loaded Biotin-KRAS (G12V), FLAG CRAF RBD; read-out: TR-Fret_PPI KRAS (G12V)/CRAF IC50
Measurement name: IC50

- Compound: "[2H]C([2H])(Oc1nc(N2CCCC[C@H]3[C@@H](Cl)[C@H]32)c2cnc(-c3cc(N)cc4ccc(F)c(C#C)c34)c(F)c2n1)[C@@]12CCCN1C[C@H](F)C2 [Example 344]"
  Measurement name: "IC50"
  Recorded measurement: "≥ 10 µM"

For every item in the list below, what is its measured IC50?
1. [2H]C([2H])(Oc1nc(N2CCOC[C@@H]3[C@H](F)[C@@H]32)c2cnc(-c3cc(N)cc4ccc(F)c(C#C)c34)c(F)c2n1)[C@@]12CCCN1C[C@H](F)C2 [Example 224]
2. [2H]C([2H])(Oc1nc(N2CCCC[C@@H]3[C@@H](Cl)[C@@H]32)c2cnc(-c3cc(N)cc4ccc(F)c(C#C)c34)c(F)c2n1)[C@@]12CCCN1C[C@H](F)C2 [Example 341]

[out]
> 3 µM
≥ 10 µM

---

Would you kindly list IC50 for each of these compounds?
# Tested on: KRAS G12V dependent lung adenocarcinoma cell line, NCI-H441
# Protocol text: Cellular pERK (Thr202/Tyr204) FRET/HTRF assay
# Assay type: cell-based
# Condition label: Homo sapiens, NCI-H441, pERK HTRF, NCI-H441 cells (KRAS G12V)

- Compound: "[2H]C([2H])(Oc1nc(N2CCOC[C@H]3C[C@H]32)c2cnc(-c3cc(N)cc4cc(F)c(F)c(C#C)c34)c(F)c2n1)[C@@]12CCCN1C[C@H](F)C2 [Example 62]"
  Tested target: "KRAS G12V dependent lung adenocarcinoma cell line, NCI-H441"
  IC50: "0.05 to 0.5 µM"

For every item in the list below, what is its measured IC50?
1. [2H]C([2H])([2H])Oc1c(C#N)ccc2cc(N)cc(-c3ncc4c(N5CCOC[C@H]6[C@H](F)[C@H]65)nc(OC([2H])([2H])[C@@]56CCCN5C[C@H](F)C6)nc4c3F)c12 [Example 81]
2. [2H]C([2H])(Oc1nc(N2CCCO[C@H]3[C@H](F)[C@H]32)c2cnc(-c3cccc4cc(F)c(F)c(C#C)c34)c(F)c2n1)[C@@]12CCCN1C[C@H](F)C2 [Example 76]

[out]
["< 0.05 µM", "< 0.05 µM"]

---

Would you kindly list pIC50 for each of these compounds?
# Test system: KRAS G12V dependent lung adenocarcinoma cell line, NCI-H441
# Protocol text: Cellular pERK (Thr202/Tyr204) FRET/HTRF assay
# Assay type: cell-based
# Condition label: Homo sapiens, NCI-H441, cellular pERK (Thr202/Tyr204) HTRF, NCI-H441 cells
pIC50: −log10 of the molar value.

- Compound: "[2H]C([2H])(F)Oc1c(F)ccc2cc(N)cc(-c3ncc4c(N5CCOC[C@H]6[C@H](F)[C@H]65)nc(OC([2H])([2H])[C@@]56CCCN5C[C@H](F)C6)nc4c3F)c12 [Example 116]"
  Tested target: "KRAS G12V dependent lung adenocarcinoma cell line, NCI-H441"
  pIC50: "> 7.30"
- Compound: "Nc1cc(Cl)c(C(F)(F)F)c(-c2ncc3c(N4CCCC[C@H]5[C@H](F)[C@H]54)nc(OC[C@]45C/C(=C\\F)CN4CCC54CC4)nc3c2F)c1 [Example 378]"
  Tested target: "KRAS G12V dependent lung adenocarcinoma cell line, NCI-H441"
  pIC50: "6.30 to 7.30"
- Compound: "[2H]C([2H])(Oc1nc(N2CCOC[C@H]3[C@H](F)[C@H]32)c2cc(Cl)c(-c3cc(N)cc(C4CC4)c3C(F)(F)F)c(F)c2n1)[C@@]12CCCN1C[C@H](F)C2 [Example 183]"
  Tested target: "KRAS G12V dependent lung adenocarcinoma cell line, NCI-H441"
  pIC50: "5.00 to 6.30"
- Compound: "[2H]C([2H])(F)Oc1c(F)ccc2cccc(-c3ncc4c(N5CCCC[C@H]6[C@H](F)[C@H]65)nc(OC[C@]56CC(=C(F)F)CN5CCC65CC5)nc4c3F)c12 [Example 413]"
  Tested target: "KRAS G12V dependent lung adenocarcinoma cell line, NCI-H441"
  pIC50: "6.30 to 7.30"
- Compound: "[2H]C([2H])(Oc1nc(N2CCCC[C@H]3[C@H](F)[C@H]32)c2cnc(-c3cncc4ccc(F)c(C#C)c34)c(F)c2n1)[C@@]12CCCN1C[C@H](F)C2 [Example 97]"
  Tested target: "KRAS G12V dependent lung adenocarcinoma cell line, NCI-H441"
  pIC50: "> 7.30"

For every item in the list below, what is its measured pIC50?
1. [2H]C1([2H])CC2(CC2)[C@]2(C([2H])([2H])Oc3nc(N4CCOC[C@H]5[C@H](F)[C@H]54)c4cnc(-c5cc(N)cc6ccc(F)c(C#C)c56)c(F)c4n3)C[C@]([2H])(F)CN12 (single isomer, unassigned) [Example 204]
2. [2H]C([2H])(Oc1nc(N2CCOC[C@H]3[C@H](F)[C@H]32)c2cnc(-c3cc(N)cc4ccc(F)c(C#C)c34)c(F)c2n1)C12CCCN1CCC2 [Example 213]
3. [2H]C([2H])(F)Oc1c(F)ccc2cccc(-c3ncc4c(N5CCOC[C@H]6[C@H](F)[C@H]65)nc(OC[C@]56C/C(=C\F)CN5CCC65CC5)nc4c3F)c12 [Example 385]
4. [2H]C([2H])(Oc1nc(N2CCOC[C@@H]3[C@@H](F)[C@@H]32)c2cc(F)c(-c3nc(N)cc(C)c3C(F)(F)F)c(F)c2n1)[C@@]12CCCN1C[C@H](F)C2 [Example 176]

[out]
1. > 7.30
2. > 7.30
3. > 7.30
4. 5.00 to 6.30

All values here come from patent US20250282799A1.
